test system: MARIMO; test: cell viability relative to vehicle control; higher = less cytotoxic; settings: 10 µM; SRSF2 genotype: SRSF2 P95H/wt;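 note: after 48 h exposure read by CellTiter-Glo luminescence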
Kindly supply the reported cell viability values for the records listed here.
One number for each entry, in %.

In the examples that follow, each entry is paired with its recorded cell viability.
Cc1[nH]nc(C(F)(F)F)c1Cc1sc2c(c1C(=O)N1C[C@](C)(O)CO1)c(=O)n(C)c(=O)n2C(C)C	90.5
COc1cc2c(c(OC)c1OC)-c1c(cc3c(c1OC)OCO3)C[C@H](C)[C@](C)(O)[C@H]2OC(=O)c1ccccc1	89.3
CCCCCCCCCC(=O)OCC(COC(=O)CCCCCCCCC)OC(=O)CCCCCCCCC [Glyceryl tridecanoate]	106

// for each compound below, give its cell viability
1. CC(C)(O)CC[C@@H](O)[C@](C)(O)[C@H]1CC[C@@]2(O)C3=CC(=O)[C@@H]4C[C@@H](O)[C@@H](O)C[C@]4(C)[C@H]3CC[C@]12C [20-Hydroxyecdysone]
2. CN1CCN(CCOc2cc(OC3CCOCC3)c3c(Nc4c(Cl)ccc5c4OCO5)ncnc3c2)CC1
3. O=C(NCc1ccc(Oc2ccccc2)cc1)c1nc(-c2cc(Br)c(O)c(Br)c2)no1
4. CC(C)C12CCC(C)(CC1)O2

-- reply
[109, 97.1, 80.5, 103]

* * *

Kindly supply the reported cell viability values for the records listed here.
system: MARIMO; experiment: cell viability relative to vehicle control; higher = less cytotoxic; details: 10 µM; SRSF2 genotype: SRSF2 wt/wt
Counter-ions that a name gives are not always drawn.
Give bare numbers, in %.

CN(C)C(=O)/C(C#N)=C/c1ccc(-c2nc3cnc4[nH]ccc4c3n2C2CCCCC2)o1	89.3

// for each compound below, give its cell viability
1. Cc1cccc(-c2nn3c(c2-c2ccnc4ccc(C(N)=O)cc24)CCC3)n1
2. CCCCCCCCN=c1ccn(CCCCCCCCCCn2ccc(=NCCCCCCCC)cc2)cc1 [Octenidine Dihydrochloride]
3. COc1ccc2c(c1)c(CC(=O)O)c(C)n2C(=O)c1ccc(Cl)cc1 [Indometacin Sodium]

-- reply
[103, 0.34, 103]

* * *

Kindly supply the reported cell viability values for the records listed here.
tested on: OCI-AML2; test: cell viability relative to vehicle control; higher = less cytotoxic; settings: 10 µM; SRSF2 genotype: wt/wt
Counter-ions that a name gives are not always drawn.
Give bare numbers, in %.

COc1cc(F)c(F)c(Nc2ccc(I)cc2F)c1NS(=O)(=O)C1(C[C@H](O)CO)CC1 [Refametinib (RDEA119, Bay 86-9766)]	35.1
CCCCCCCCCC(C)O (stereo not drawn)	105
Cn1ncc(Cl)c1-c1cc(C(=O)N[C@H](CN)Cc2cccc(F)c2)sc1Cl	48.6
Cn1c(N2CCCCS2(=O)=O)nc(C(=O)NCc2ccc(F)cc2)c(O)c1=O	102

// for each compound below, give its cell viability
1. Cc1cc(Nc2cc(N3CCN(C)CC3)nc(/C=C/c3ccccc3)n2)n[nH]1 [ENMD-2076 L-(+)-Tartaric acid]
2. C[C@@H](O[C@H]1OCCN(Cc2nn(P(=O)(O)O)c(=O)[nH]2)[C@H]1c1ccc(F)cc1)c1cc(C(F)(F)F)cc(C(F)(F)F)c1 [Fosaprepitant dimeglumine salt]
3. CNc1cccc(CCOc2ccc3c(c2)CN(CC(F)(F)F)C(=O)[C@H](CC(=O)O)C3)n1

-- reply
1: 14.7; 2: 58; 3: 106

-- ask Recall the reported cell viability of COCCOc1cnc2ccn([C@H](C)c3nnc4c(F)cc(-c5cnn(C)c5)cn34)c(=O)c2c1 when tested on OCI-AML2.
-- reply 85.9

* * *

Kindly supply the reported cell viability values for the records listed here.
system: OCI-AML2; assay: cell viability relative to vehicle control; higher = less cytotoxic; conditions: 10 µM; SRSF2 genotype: wt/wt
Counter-ions that a name gives are not always drawn.
Numbers only, in %.

CO/N=C(\C(=O)N[C@@H]1C(=O)N2C(C(=O)O)=C(CSc3nnnn3C)CS[C@H]12)c1csc(N)n1 [Cefmenoxime hydrochloride]	101
COc1ccccc1OCCNCC(O)COc1cccc2[nH]c3ccccc3c12 (stereo unspecified)	56.2
NCCCNCCCCNCCCN	106
C#C[C@]1(O)CC[C@H]2[C@@H]3CCC4=CCCC[C@@H]4[C@H]3C(=C)C[C@@]21CC	63
CC1CCc2c(N3CCC(O)CC3)c(F)cc3c(=O)c(C(=O)O)cn1c23 (stereo unspecified)	94

// for each compound below, give its cell viability
1. Cc1cc(C(C)Nc2ccccc2)c2nc(N3CCOCC3)cc(=O)n2c1 (stereo unspecified)
2. COc1cccc2c1C(=O)c1c(O)c3c(c(O)c1C2=O)C[C@@](O)(C(=O)CO)C[C@@H]3O[C@H]1C[C@H](N)[C@H](O[C@@H]2CCCCO2)[C@H](C)O1
3. Nc1nc(N)c2nc(-c3cccc(O)c3)cnc2n1

-- reply
1. 76.6
2. 0.51
3. 53.1

* * *

system: OCI-AML2; assay: cell viability relative to vehicle control; higher = less cytotoxic; details: 10 µM; SRSF2 genotype: wt/wt
Kindly supply the reported cell viability values for the records listed here.
Give bare numbers, in %.

Clc1ccc(COC(Cn2ccnc2)c2ccc(Cl)cc2Cl)c(Cl)c1 (configuration not stated) [Miconazole nitrate]	63.4
Cc1onc(-c2ccccc2)c1-c1ccc(S(N)(=O)=O)cc1 [Valdecoxib]	88.5
CC(=O)N1CCN(c2ccc(OCC3COC(Cn4ccnc4)(c4ccc(Cl)cc4Cl)O3)cc2)CC1 (configuration not stated) [Ketoconazole]	30.8
C[C@]12CC[C@@H]3c4ccc(O)cc4CC[C@H]3[C@@H]1C[C@@H](O)[C@@H]2O [Estriol]	101
CS(=O)(=O)Nc1ccc([N+](=O)[O-])cc1Oc1ccccc1 [Nimesulide]	110

// for each molecule below, give its cell viability
1. Cc1cc(=O)c2c(O)c3c(cc2o1)OC(C)(C)[C@@H](O[C@@H]1O[C@H](CO)[C@@H](O)[C@H](O)[C@H]1O)C3 [Sec-O-Glucosylhamaudol]
2. COc1cc(O)c2c(c1)oc(=O)c1c3cc(O)c(O)cc3oc21 [Wedelolactone]
3. Cc1cc(C)n(C)n1 [1,3,5-Trimethylpyrazole]
4. CC1=C(CC(=O)O)c2cc(F)ccc2/C1=C\c1ccc([S+](C)[O-])cc1 (configuration not stated) [Sulindac (Clinoril)]
5. CCc1c(O)cc(O)c(C(=O)c2ccc(OCCN3CCOCC3)c(OC)c2)c1CC(=O)N(CCOC)CCOC

-- reply
91.3
82.1
104
102
21.8

// for each molecule below, give its cell viability
1. NC(=O)C1CCCc2c1[nH]c1ccc(Cl)cc21 (configuration not stated)
2. Nc1ccc(C(=O)NCC(=O)O)cc1 [4-Aminohippuric Acid]
3. COc1c(O[C@@H]2O[C@H](CO)[C@@H](O)[C@H](O)[C@H]2O)cc2occ(-c3ccc(O)cc3)c(=O)c2c1O [Tectoridin]
4. O=c1oc2cc(O)ccc2s1 [Tioxolone]
5. CC(=O)O[C@]1(C)CC[C@@]23C[C@H]1C(C)(C)[C@@H]2CC[C@H]3C [Cedryl acetate]
6. C=CC[N+]1([C@H]2C[C@H]3[C@@H]4CC[C@H]5C[C@H](O)[C@@H](N6CCOCC6)C[C@]5(C)[C@H]4CC[C@]3(C)[C@H]2OC(C)=O)CCCC1 [Rocuronium bromide]

-- reply
92.2
103
97.8
97.4
110
99.3

-- ask Answer with the recorded cell viability for the molecule listed here: CN(C)CCOc1ccc(-c2nc(-c3ccncc3)c(-c3ccc4c(c3)CC/C4=N\O)[nH]2)cc1
-- reply 15.8

* * *

tested on: MARIMO; assay: cell viability relative to vehicle control; higher = less cytotoxic; conditions: 10 µM; SRSF2 genotype: SRSF2 P95H/wt
Kindly supply the reported cell viability values for the records listed here.
Numbers only, in %.

In the examples that follow, each entry is paired with its recorded cell viability.
O=C(O)[C@H]1CSC(c2nc3ccc(O)cc3s2)=N1 [D-Luciferin]	82.4
CC(C)=CCC[C@@H](C)CC=O [Citronellal]	96.2
CCCCCCCCCCCC[N+](C)(C)CCOc1ccccc1 [Domiphen Bromide]	0.45

// for each compound below, give its cell viability
1. Nc1cc(C(F)(F)F)c(-c2cc(N3CCOCC3)nc(N3CCOCC3)n2)cn1
2. CCOC(=O)N[C@@H]1CC[C@@H]2[C@@H](C1)C[C@H]1C(=O)O[C@H](C)[C@H]1[C@H]2/C=C/c1ccc(-c2cccc(F)c2)cn1
3. Cc1nc2c(O)cccc2c(=O)[nH]1
4. COc1cc(/C=C/C(=O)OC[C@H]2O[C@H](O[C@]3(CO)O[C@H](CO)[C@@H](O)[C@@H]3OC(=O)/C=C/c3cc(OC)c(O)c(OC)c3)[C@H](O)[C@@H](O)[C@@H]2O)cc(OC)c1O [3,6'-Disinapoyl sucrose]
5. CCCc1cc(C)[nH]c(=O)c1CNC(=O)c1cc(-c2ccc(N3CCN(C(C)C)CC3)nc2)cc2c1cnn2C(C)C
6. Cc1cc(C)c(CN2CCc3c(Cl)cc(-c4c(C)noc4C)c(Cl)c3C2=O)c(=O)[nH]1

-- reply
[23.2, 83.3, 99.4, 106, 81.1, 74.8]
